Data origin: patent US8952024B2

# Test system: pigweed (Amaranthus retroflexus)
# TEST_NAME: Test B pre-/postemergence plant response
# Assay type: in vivo
# EXPERIMENTAL_CONTEXT: Postemergence, 125 g ai/ha; scale 0 to 100 (0 no effect, 100 complete control)

| STRUCTURE | Plant response rating, Pigweed |
| --- | --- |
| Cc1ccc(F)cc1-n1c(-c2cccc(Cl)c2)ncc(C(=O)C2=C(O)CCCC2=O)c1=O | 90 |
| COCCCn1c(-c2cc(F)cc(F)c2)ncc(C(=O)C2=C(O)CCCC2=O)c1=O | 100 |
| CCCCn1c(-c2cccc(Cl)c2)ncc(C(=O)C2=C(O)CCCC2=O)c1=O | 100 |

---

# Test system: corn (Zea mays)
# TEST_NAME: Test B pre-/postemergence plant response
# Format: in vivo
# EXPERIMENTAL_CONTEXT: 62 g ai/ha, postemergence; 0 is no effect, 100 is complete control; 13 to 15 days
# Text: […] Treated plants and controls were maintained in a greenhouse for 13 to 15 days, after which time all treated plants were visually evaluated and compared to controls. […]
PARAMETER_MEASURED: Corn plant response rating (0 to 100 scale)

| STRUCTURE | ASSAYED_TARGET | OBS_VALUE |
| --- | --- | --- |
| CC(C)CC(=O)OC1=C(C(=O)c2cnc(-c3ccccc3)n(-c3ccccc3)c2=O)C(=O)CCC1 | corn (Zea mays) | 5 |
| COCCCn1c(-c2cccc(Br)c2)ncc(C(=O)C2=C(O)CCCC2=O)c1=O | corn (Zea mays) | 5 |
| CCCCn1c(-c2cccc(Cl)c2)ncc(C(=O)C2=C(O)CCCC2=O)c1=O | corn (Zea mays) | 5 |

---

Plant response rating, Wheat values by entry
# System: wheat (Triticum aestivum)
# TEST_NAME: Test A pre-/postemergence plant response
# Type: in vivo
# EXPERIMENTAL_CONTEXT: Preemergence, 500 g ai/ha; 0 to 100 scale, 0 = no effect, 100 = complete control
PARAMETER_MEASURED: Plant response rating, Wheat

| STRUCTURE | PARAMETER_MEASURED | OBS_VALUE |
| --- | --- | --- |
| Cc1ccc(-n2c(-c3cccc(F)c3)ncc(C(=O)C3=C(O)CCCC3=O)c2=O)cc1 | Plant response rating, Wheat | 40 |
| CCCCn1c(-c2cccc(Cl)c2)ncc(C(=O)C2=C(O)CCCC2=O)c1=O | Plant response rating, Wheat | 40 |
| CCCn1c(-c2cccs2)ncc(C(=O)c2cnn(CC)c2O)c1=O | Plant response rating, Wheat | 0 |
| CCn1c(Cc2ccccc2)ncc(C(=O)C2=C(O)CCCC2=O)c1=O | Plant response rating, Wheat | 0 |

---

# System: wheat (Triticum aestivum)
# TEST_NAME: Test A pre-/postemergence plant response
# Assay type: in vivo
# EXPERIMENTAL_CONTEXT: Preemergence, 500 g ai/ha; visual injury, 0 to 100 scale (0 no effect, 100 complete control), approx. ten days

| STRUCTURE | Plant response rating, Wheat |
| --- | --- |
| O=C1CCCC(O)=C1C(=O)c1cnc(-c2ccccc2)n(-c2ccccc2F)c1=O | 0 |
| CCCCn1c(-c2cc(F)cc(F)c2)ncc(C(=O)C2=C(O)CCCC2=O)c1=O | 50 |
| CSc1ncc(C(=O)C2=C(O)CCCC2=O)c(=O)n1-c1ccccc1 | 0 |
| CCCn1c(-c2ccco2)ncc(C(=O)C2=C(O)CCCC2=O)c1=O | 0 |
| O=C1CCCC(O)=C1C(=O)c1cnc(-c2ccccc2)n(-c2cccc(F)c2)c1=O | 0 |
| CCCCCCc1ncc(C(=O)C2=C(O)CCCC2=O)c(=O)n1-c1ccccc1 | 0 |
| Cn1c(-c2ccccc2)ncc(C(=O)C2=C(O)CCCC2=O)c1=O | 0 |
| CCCCn1c(-c2cccc(C)c2)ncc(C(=O)C2=C(O)CCCC2=O)c1=O | 0 |
| CCCn1c(-c2ccc(F)cc2)ncc(C(=O)C2=C(O)CCCC2=O)c1=O | 0 |
| Cc1ccc(-c2ncc(C(=O)C3=C(O)CCCC3=O)c(=O)n2-c2ccccc2)cc1 | 0 |
| CC(C)n1c(-c2ccccc2)ncc(C(=O)C2=C(O)CCCC2=O)c1=O | 0 |
| O=C1CCCC(O)=C1C(=O)c1cnc(-c2ccccc2)n(-c2cccc(Br)c2)c1=O | 20 |
| Cc1cccc(Cl)c1-n1c(-c2ccccc2)ncc(C(=O)C2=C(O)CCCC2=O)c1=O | 20 |
